# Target: T1, AGS73.15 (MS497)
# T1 construct: It carries a human IgG Fc (detected with anti-human IgG Fc)
# T1 sequence (VH, as listed by the source, chain 1 of 2): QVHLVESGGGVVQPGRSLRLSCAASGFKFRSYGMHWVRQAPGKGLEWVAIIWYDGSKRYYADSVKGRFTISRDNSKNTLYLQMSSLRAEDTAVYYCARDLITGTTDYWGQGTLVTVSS
# T1 sequence (VL, as listed by the source, chain 2 of 2): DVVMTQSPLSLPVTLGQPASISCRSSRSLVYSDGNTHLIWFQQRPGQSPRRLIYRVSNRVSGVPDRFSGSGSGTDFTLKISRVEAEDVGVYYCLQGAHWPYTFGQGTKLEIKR
# Measurement Notes: flow cytometry, blocking of AGS73.15 (200 ng/ml) binding to CD3ε on human T cells; AGS73.15 detected with anti-human IgG Fc-PE
Exercise: for every item that follows, state its recorded IC50 (read off the curve).

Binder | IC50 (read off the curve)
6d59.id.1b71.1 (antibody, V domains shown, Anti-idiotypic antibody against 6d59) VL: DIVLTQSPASLAVSLGQRATISCKASQSVDYDGNGYMNWYQQKPGQPPKLLIYAASNLESGIPARFSGSGSGTDFTLNIHPVEEEDAATYYCQQSNEDPYTFGGGTKLEIKR V domain: EVQLQQSGSELASPGTSVKLSCKASGYTFTSYWVQWIKQRPGQGLEWIGAIYPGDGDLRSTQKFKGKATLTADKSSDTAYMQLSSLASEDSAVYYCARLDDFDLDYWGQGTTLIVSS | ~0.06 µg/mL

Now let's try a different one.
What value of IC50 (read off the curve) has been recorded for this entry: 6d59.id.1b54.1 (antibody, V domains shown, Anti-idiotypic antibody against 6d59) VH: DVQLQESGPGLVKPSQSLSLTCSVTGYSITSSYYWNWIRQFPGNKLEWMGSIMYDGNNNYNPSLKNRISITRDTSKNQFFLKLNSVTTEDTATYYCARNMADYFGNTYDALDYWGQGTSVTVSS VL: DILLTQSPGSLAVSLGQRATISCKASQSADYGGDSYMSWYQQKPGQPPKLLIYAASNLESGTPARFSGSGSGTDFTLNIHPVEEEDAATYYCQQGNEDPWTFGGGTKLEIKR
~0.07 µg/mL
